Molecular target: recombinant human KRAS G12C protein (Homo sapiens, UniProt P01116, G12C)
Construct: The recombinant human KRAS G12C protein (aa1-169)
Sequence (P01116 1-169 isoform P01116-2 G12C): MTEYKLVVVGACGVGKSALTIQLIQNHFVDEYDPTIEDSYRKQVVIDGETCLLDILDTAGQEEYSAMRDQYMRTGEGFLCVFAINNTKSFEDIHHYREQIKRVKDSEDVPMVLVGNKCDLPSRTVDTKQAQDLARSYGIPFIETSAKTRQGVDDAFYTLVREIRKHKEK
Assay: Covalent binding ability to KRAS G12C protein (LC-MS)
Settings: 3 μM, 5 min
measurement kind: Covalent binding rate (%)

Some molecules with recorded Covalent binding rate (%):
molecule: C=CC(=O)N1C[C@@H]2C(=O)N(C)c3c(c4cc(F)c(-c5ccc(F)c6sc(N)nc56)nc4n(-c4c(C)ccnc4C(C)C)c3=O)N2C[C@H]1C
unit annotation: %
Covalent binding rate (%): 42.5
--
molecule: C=CC(=O)N1C[C@@H]2C(=O)N(C)c3c(c4cc(F)c(-c5nc(N)ccc5Cl)nc4n(-c4c(C)ccnc4C(C)C)c3=O)N2C[C@H]1C
unit annotation: %
Covalent binding rate (%): 45.5

[a] C=CC(=O)N1C[C@@H]2C(=O)N(C)c3c(c4cc(Cl)c(-c5c(O)cccc5F)nc4n(-c4c(SC)ccnc4C(C)C)c3=O)N2C[C@H]1C (single isomer, unassigned) [Compound 17]
[b] C=CC(=O)N1C[C@@H]2C(=O)N(C)c3c(c4cc(Cl)c(-c5c(O)cccc5F)nc4n(-c4c(SC)ccnc4C(C)C)c3=O)N2C[C@H]1C [Compound 16]
Query: Parameter metric = Covalent binding rate (%). Return the lower-valued option from a and b . Answer format: the label of the selected item.
Response: b
(b: 38.5%, a: 63.4%)

----------
Experiment: ICR mouse pharmacokinetic research
Type: in vivo
Details: plasma, po, ICR mice, intragastric administration 5 mg/kg, read-out: Half-life T½ (converted)
measurement kind: half-life (h)

compound: C=CC(=O)N1C[C@@H]2C(=O)N(C)c3c(c4cc(Cl)c(-c5c(O)cccc5F)nc4n(-c4c(C)ccnc4C(C)C)c3=O)N2C[C@H]1C (atropisomer, axis not shown) [Comparative Example 1, reference compound]
half-life, h: 1.95

compound: C=CC(=O)N1C[C@@H]2C(=O)N(C)c3c(c4cc(Cl)c(-c5c(O)cccc5F)nc4n(-c4c(SC)ccnc4C(C)C)c3=O)N2C[C@H]1C (single isomer, unassigned)
half-life, h: 2.36

----------
Biological target: hERG potassium ion channel (Homo sapiens)
Experiment: Inhibition of hERG potassium ion channel (QPatch, CHO hERG cells)
Conditions: highest test concentration 30 μM
pIC50: −log10 of the molar value.
measurement kind: pIC50

Query: Consider the compound shown here: C=CC(=O)N1C[C@@H]2C(=O)N(C)c3c(c4cc(Cl)c(-c5c(O)cccc5F)nc4n(-c4c(SC)ccnc4C(C)C)c3=O)N2C[C@H]1C (single isomer, unassigned) What is its recorded pIC50?
Response: < 4.52

----------
Experiment: ICR mouse pharmacokinetic research
Format: in vivo
Details: plasma, po, ICR mice, intragastric administration 5 mg/kg, read-out: Area under curve AUC0-∞
measurement kind: AUC(0-inf) (ng·h/mL)

[I] C=CC(=O)N1C[C@@H]2C(=O)N(C)c3c(c4cc(Cl)c(-c5c(O)cccc5F)nc4n(-c4c(C)ccnc4C(C)C)c3=O)N2C[C@H]1C (atropisomer, axis not shown) [Comparative Example 1, reference compound]
[II] C=CC(=O)N1C[C@@H]2C(=O)N(C)c3c(c4cc(Cl)c(-c5c(O)cccc5F)nc4n(-c4c(SC)ccnc4C(C)C)c3=O)N2C[C@H]1C (single isomer, unassigned)
Query: Could you please tell me which of these two has the higher AUC(0-inf): I or II ? Answer format: the label of the selected item.
Response: II
(II: 6380 ng·h/mL, I: 4180 ng·h/mL)
